Entries and their remaining at 2 h
# PROTOCOL_DESCRIPTION: in vitro
# STATED_CONDITIONS: pig, simulated intestinal fluid
Starred links: 1 amine or outer side, 2 acyl side, 3 side chain; linkers in the order of their positions; H or OH if unused. Non-standard residues stand in square brackets, D forms with d. Residues, ends and D or L forms follow the SMILES beside them. X1 = CC(C)C[C@H](NC(=S)[C@H](Cc1ccc(O)cc1)N[*:1])C(=O)[*:2]; X6 = O=C([C@H](Cc1ccc(O)cc1)NC(=S)[C@H]1CCCN1[*:1])[*:2]; X4 = CC(C)C[C@H](N[*:1])C(=S)N1CCC[C@@H]1C(=O)[*:2]; NMeL = CN[C@@H](CC(C)C)C(=O)O; dNMeL = CN[C@H](CC(C)C)C(=O)O
Write down the value, and be sure its unit follows.

Use the examples below as a reference point.
| COMPOUND | ASSAY_VALUE |
| --- | --- |
| CC(C)C[C@@H]1NC(=O)[C@H](Cc2ccc(O)cc2)NC(=O)[C@H]2CCCN2C(=O)[C@H](CC(C)C)NC(=O)[C@H](CC(C)C)NC(=O)[C@@H](CC(C)C)NC1=O [compound 10, cyclo(-D-Leu^1-Leu-Leu-D-Pro-Tyr-Leu^6-)] (cyclo(LL[dP]YL[dL])) | 13.4% |
| CC(C)C[C@@H]1NC(=O)[C@@H](CC(C)C)NC(=O)[C@H](CC(C)C)NC(=S)[C@H](Cc2ccc(O)cc2)NC(=O)[C@H]2CCCN2C(=O)[C@H](CC(C)C)NC1=O [10e] (cyclo(LL[dP][X1][dL])) | 58.3% |
| CC(C)C[C@@H]1NC(=O)[C@@H](CC(C)C)N(C)C(=O)[C@H](CC(C)C)NC(=O)[C@H](Cc2ccc(O)cc2)NC(=O)[C@H]2CCCN2C(=O)[C@H](CC(C)C)NC1=O [10g] (cyclo(LL[dP]YL[dNMeL])) | 10% |
| CC(C)C[C@@H]1NC(=O)[C@@H](CC(C)C)NC(=O)[C@H](CC(C)C)N(C)C(=O)[C@H](Cc2ccc(O)cc2)NC(=O)[C@H]2CCCN2C(=O)[C@H](CC(C)C)NC1=O [10k] (cyclo(LL[dP]Y[NMeL][dL])) | 39% |
| CC(C)C[C@@H]1NC(=O)[C@H](Cc2ccc(O)cc2)NC(=O)[C@H]2CCCN2C(=S)[C@H](CC(C)C)NC(=O)[C@H](CC(C)C)NC(=O)[C@@H](CC(C)C)NC1=O [10c] (cyclo(L[dL]L[X4]Y)) | 38.4% |

Attention now shifts to the item below.
Record summary for CC(C)C[C@@H]1NC(=O)[C@H](Cc2ccc(O)cc2)NC(=S)[C@H]2CCCN2C(=O)[C@H](CC(C)C)NC(=O)[C@H](CC(C)C)NC(=O)[C@@H](CC(C)C)NC1=O [10d] (cyclo(LL[X6]L[dL])) : reported remaining at 2 h = 38.5%

###

Quick reference for logD among some compounds
# PROTOCOL_DESCRIPTION: physchem
# STATED_CONDITIONS: pH 7.4
Starred links: 1 amine or outer side, 2 acyl side, 3 side chain; linkers in the order of their positions; H or OH if unused. Non-standard residues stand in square brackets, D forms with d. Residues, ends and D or L forms follow the SMILES beside them. X12 = C[C@@H](O)[C@H](N[*:1])C(=S)N[C@@H](Cc1ccccc1)C(=O)[*:2]; X4 = CC(C)C[C@H](N[*:1])C(=S)N1CCC[C@@H]1C(=O)[*:2]

Reference set (2 entries):
| COMPOUND | ASSAY_VALUE |
| --- | --- |
| C[C@@H](O)[C@@H]1NC(=O)[C@H](CCCCN)NC(=O)[C@@H](Cc2c[nH]c3ccccc23)NC(=O)[C@H](Cc2ccccc2)NC(=O)[C@@H]2CCCN2C(=O)[C@H](Cc2ccccc2)NC1=S [13c] (cyclo(F[dW]K[X12]P)) | -1.04 |
| CC(C)C[C@@H]1NC(=O)[C@@H](CC(C)C)NC(=O)[C@H]2CCCN2C(=S)[C@H](CC(C)C)NC(=O)[C@@H](CC(C)C)NC(=O)[C@H](CC(C)C)NC(=O)[C@@H]2CCCN2C(=O)[C@@H](C)NC1=O [12b] (cyclo(L[dL][X4][dL]L[dA]P)) | 1.61 |

Switching to the query record.
Form field logD, entry CN(C(=O)[C@@H](N)Cc1ccccc1)[C@@H](CCC(=O)O)C(=O)O [2b] : -2.14

###

Entries and their Papp A-B set 2 (second block) values follow.
# Tested on: Caco-2 cells;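 also: Caco-2 monolayers used 21 days after seeding in HBSS-HEPES buffer with 1% DMSO, donor and acceptor levels quantified by LC-MS/MS, TEER checked before and after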
# PROTOCOL_DESCRIPTION: in vitro
# Assay type: in vitro ADME, human
# STATED_CONDITIONS: Caco-2
Starred links: 1 amine or outer side, 2 acyl side, 3 side chain; linkers in the order of their positions; H or OH if unused. Non-standard residues stand in square brackets, D forms with d. Residues, ends and D or L forms follow the SMILES beside them. X1 = CC(C)C[C@H](NC(=S)[C@H](Cc1ccc(O)cc1)N[*:1])C(=O)[*:2]; X2 = CC(C)C[C@H](NC(=S)[C@@H](CC(C)C)N[*:1])C(=O)[*:2]; X3 = CC(C)C[C@H](N[*:1])C(=S)N[C@H](CC(C)C)C(=O)[*:2]; X4 = CC(C)C[C@H](N[*:1])C(=S)N1CCC[C@@H]1C(=O)[*:2]
Numbers only here, please. The scale is cm/s.

| MOLECULE | TARGET | MEASURED_PROPERTY | ASSAY_VALUE |
| --- | --- | --- | --- |
| CC(C)C[C@@H]1NC(=O)[C@H](Cc2ccc(O)cc2)NC(=O)[C@H]2CCCN2C(=O)[C@H](CC(C)C)NC(=O)[C@H](CC(C)C)NC(=S)[C@@H](CC(C)C)NC1=O [10a] (cyclo(L[dP]YL[X2])) | Caco-2 cells | Papp A-B set 2 (second block) | 3.36e-06 |
| C[C@H]1O[C@@H](O[C@H]2[C@@H](O)C[C@H](O[C@H]3[C@@H](O)C[C@H](O[C@H]4CC[C@@]5(C)[C@H](CC[C@@H]6[C@@H]5C[C@@H](O)[C@]5(C)[C@@H](C7=CC(=O)OC7)CC[C@]65O)C4)O[C@@H]3C)O[C@@H]2C)C[C@H](O)[C@@H]1O [Digoxin, reference compound] | Caco-2 cells | Papp A-B set 2 (second block) | 6.5e-07 |
| CC(C)C[C@@H]1NC(=O)[C@@H](CC(C)C)NC(=O)[C@H](CC(C)C)NC(=S)[C@H](Cc2ccc(O)cc2)NC(=O)[C@H]2CCCN2C(=O)[C@H](CC(C)C)NC1=O [10e] (cyclo(LL[dP][X1][dL])) | Caco-2 cells | Papp A-B set 2 (second block) | 1.96e-06 |
| CC(C)C[C@@H]1NC(=O)[C@H](Cc2ccc(O)cc2)NC(=O)[C@H]2CCCN2C(=S)[C@H](CC(C)C)NC(=O)[C@H](CC(C)C)NC(=O)[C@@H](CC(C)C)NC1=O [10c] (cyclo(L[dL]L[X4]Y)) | Caco-2 cells | Papp A-B set 2 (second block) | 0.00 |
| CC(C)C[C@@H]1NC(=O)[C@@H](CC(C)C)NC(=S)[C@H](CC(C)C)NC(=O)[C@H](Cc2ccc(O)cc2)NC(=O)[C@H]2CCCN2C(=O)[C@H](CC(C)C)NC1=O [10f] (cyclo(LL[dP]Y[X3])) | Caco-2 cells | Papp A-B set 2 (second block) | 1.45e-06 |

Let's switch to this molecule now.
Form: molecule = CC(C)NCC(O)COc1cccc2ccccc12 (stereo not drawn) [Propranolol, reference compound] ; Papp A-B set 2 (second block) = 1.587e-05

###

# PROTOCOL_DESCRIPTION: PAMPA passive permeability;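 also: passive permeability across an artificial membrane in 96-well pre-coated PAMPA plates, which lack transporters and efflux systems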
# Type: in vitro ADME
Starred links: 1 amine or outer side, 2 acyl side, 3 side chain; linkers in the order of their positions; H or OH if unused. Non-standard residues stand in square brackets, D forms with d. Residues, ends and D or L forms follow the SMILES beside them. X1 = CC(C)C[C@H](NC(=S)[C@H](Cc1ccc(O)cc1)N[*:1])C(=O)[*:2]; X6 = O=C([C@H](Cc1ccc(O)cc1)NC(=S)[C@H]1CCCN1[*:1])[*:2]; X2 = CC(C)C[C@H](NC(=S)[C@@H](CC(C)C)N[*:1])C(=O)[*:2]; X3 = CC(C)C[C@H](N[*:1])C(=S)N[C@H](CC(C)C)C(=O)[*:2]; X5 = CC(C)C[C@H](NC(=S)[C@H](CC(C)C)N[*:1])C(=O)[*:2]; X4 = CC(C)C[C@H](N[*:1])C(=S)N1CCC[C@@H]1C(=O)[*:2]
Recorded Pe set2 values for a group of compounds are listed next.
Give the number; ×10⁻⁶ cm/s is assumed, so skip it.

Known Pe set2 results, listed for orientation:
| COMPOUND | MEASURED_PROPERTY | ASSAY_VALUE |
| --- | --- | --- |
| CC(C)C[C@@H]1NC(=O)[C@H](Cc2ccc(O)cc2)NC(=O)[C@H]2CCCN2C(=S)[C@H](CC(C)C)NC(=O)[C@H](CC(C)C)NC(=O)[C@@H](CC(C)C)NC1=O [10c] (cyclo(L[dL]L[X4]Y)) | Pe set2 | 3.69 |
| CC(C)C[C@@H]1NC(=O)[C@H](Cc2ccc(O)cc2)NC(=S)[C@H]2CCCN2C(=O)[C@H](CC(C)C)NC(=O)[C@H](CC(C)C)NC(=O)[C@@H](CC(C)C)NC1=O [10d] (cyclo(LL[X6]L[dL])) | Pe set2 | 5.97 |
| CC(C)C[C@@H]1NC(=O)[C@@H](CC(C)C)NC(=S)[C@H](CC(C)C)NC(=O)[C@H](Cc2ccc(O)cc2)NC(=O)[C@H]2CCCN2C(=O)[C@H](CC(C)C)NC1=O [10f] (cyclo(LL[dP]Y[X3])) | Pe set2 | 9.86 |
| CC(C)C[C@@H]1NC(=O)[C@@H](CC(C)C)NC(=O)[C@H](CC(C)C)NC(=S)[C@H](Cc2ccc(O)cc2)NC(=O)[C@H]2CCCN2C(=O)[C@H](CC(C)C)NC1=O [10e] (cyclo(LL[dP][X1][dL])) | Pe set2 | 6.36 |
| CC(C)C[C@@H]1NC(=O)[C@H](Cc2ccc(O)cc2)NC(=O)[C@H]2CCCN2C(=O)[C@H](CC(C)C)NC(=O)[C@H](CC(C)C)NC(=S)[C@@H](CC(C)C)NC1=O [10a] (cyclo(L[dP]YL[X2])) | Pe set2 | 12.5 |

Turning now to a further compound:
Given item CC(C)C[C@@H]1NC(=O)[C@H](Cc2ccc(O)cc2)NC(=O)[C@H]2CCCN2C(=O)[C@H](CC(C)C)NC(=S)[C@H](CC(C)C)NC(=O)[C@@H](CC(C)C)NC1=O [10b] (cyclo(L[dL][X5][dP]Y)) , the value recorded as its Pe set2 is 3.05
